Biological target: T1, his-tagged human TIGIT (Acro Biosystems #TIT-H52H3) (human, UniProt Q495A1 22-141)
T1 construct: Bought protein; also called His-tagged-TIGIT (human); not shown: his tag
T1 sequence (looked up): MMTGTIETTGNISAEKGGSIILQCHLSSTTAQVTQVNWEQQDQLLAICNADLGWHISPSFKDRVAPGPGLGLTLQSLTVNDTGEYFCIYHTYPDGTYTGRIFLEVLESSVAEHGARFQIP
Experiment: ELISA, coated His-TIGIT, 1 ug/ml
Consider the following binders; for each one, report its Elisa OD450.
Answers are plain numbers, in OD450.

binder	units text	Elisa OD450
43586p1.1.G9 (scFv, V domains shown) VH: EVQLLESGGGLVQPGGSLRLSCAASGFTFTTYAMSWVRQAPGKGLEWVAGISYIGSDKYYADSVKGRLTISRDNSKNTLYLQMDSLRAEDTAVYYCAKHLTGGTTDYYYYGMDVWGQGTTVTVS VL: QSVLTQPPSASGTPGQRVTISCSGSTSNIGTSRYVHWYQHLPGTAPKLLIYLDSQRPSGVPDRFSASKSGTSASLAISGLQSEDEADYYCSAWDDSLSAWVFGGGTKLTVL	OD450	2.23
43586p1.2.E2 (scFv, V domains shown) VH: EVQLLESGGGLVQPGGSLRLSCAASGFTFTSYLMSWVRQAPGKGLEWVSTITWDGDRTYYADSVKGRFTISRDNSKNTLYLQMNSLRVGDTAVYYCAKHWTVFQYGMDVWGQGTTVTVSS VL: QSVLTQPASASGTPGQRVTISCSGTISNIETKYVSWYQQLPGTAPKLLIYGNHQRPSGVPDRFSGSKSGTSASLAISGLQSEDEADYYCASWENDLKSWVFGGGTKLTVL	OD450	2.02
43586p2.B03 (scFv, V domains shown) VH: EVQLLESGGGWVQPGGSLRLSCAASGFTFIDYWMSWVRQAPGKGLEWVSSISWIGDTTFYADSVKGRFTISRDSSLNTVYLQMNSLRAEDTAVYYCAKHWTVYQYGMDVWGQGTTVTVSS VL: QSVLTQPPSASGTPGQRVTISCSGGSSKIGSKYVHWYQQLPGTAPKLLIYKDDQRPSGVPDRFSGSKSGTSASLAISGLQSEDEADYYCAAWDDRVNAWVFGGGTKLTVL	OD450	1.16
43586p1.2.F9 (scFv, V domains shown) VH: EVQLLESGGGLVQPGGSLRLSCAASGFTFDDYVMSWVRQAPGKGLEWVSLINWNGDKTYYADSVKGRFTISRDNSKNTLYLQMNSLRAEDTAIYYCAKHWIVFQYGMDVWGRGTTVTVSS VL: QSVLTQPPSASGTPGQRVTISCSGSISNIETKYVSWYQQLPGTAPKLLIYNSDQRPSGVPDRFSGSKSGTSASLAISGLQSEDEADYYCVSWDASLKSWVFGGGTKLTVL	OD450	2

Now look at this one.
(Q) # Elisa OD450 lookup, item 43586p2.H02 (scFv, V domains shown) VH: EVQLLESGGGLVQPGGSLRLSCATSGFTVSDHYVSWVRQAPGKGLEWVSTSSSTNWNDGRTYYADSVKGRFTISRDNSENTLYLQMNSLRAEDTAVYYCAKGSYGMDVWGQGTTVTVSS VL: QSVLTQPPSASGTPGQRVTISCSASNSYIGTKYFYWYQQLPGTAPKLLIYLDSQRPSGVPDRFSGSKSGTSVSLAISGLQSEDEADYYCAFWDDHLHGWVFGGGTKLTVL
(A) 2
